Listed here: items and their measured pIC50.
# System: M. tuberculosis H37Rv growth inhibition with meropenem
# assay explanation: dose response, H37Rv, with and without meropenem (AID 434987);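 also: growth over 7 days at 37 °C before Alamar Blue read on day 9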
# study conditions: M. tuberculosis H37Rv growth inhibition; measured here: IC50 without meropenem
pIC50: −log10 of the molar value.

Previously resolved entries follow.
O=C(COc1ccccc1)Nc1cccc(-c2nnc(-c3ccccc3)o2)c1
< 4.00
OC1C(O)C(O)C(O)C(O)C1O (stereo unspecified)
< 4.00
COc1cccc(-n2c([S-])c(C(=O)Nc3ccc(S(=O)(=O)N4CCOCC4)cc3)[n+]3cc(C(N)=O)ccc23)c1
< 4.00
CC(C(=O)Nc1nc2ccccc2[nH]1)N1C(=O)C2CC=CCC2C1=O (stereo unspecified)
< 4.00
COc1ccccc1C(c1c(N)n(C)c(=O)n(C)c1=O)C(C)[N+](=O)[O-] (stereo unspecified)
4.67

Query string: Endpoint output: pIC50 of CCCCN(C)Cc1cc(=O)oc2cc3c(cc12)CCCC3 . Value?
Result string: 4.10

Query string: Endpoint output: pIC50 of COc1ccc(NC(C)C(=O)N/N=C/c2ccc([N+](=O)[O-])s2)cc1 (stereo unspecified) . Value?
Result string: 5.51

Query string: Endpoint output: pIC50 of COc1ccc2oc(=N)c(C(=O)Nc3ccccc3)cc2c1 . Value?
Result string: < 4.00

Query string: Endpoint output: pIC50 of O=C(Oc1c(-c2ccccc2)c(=O)n2c3c(cccc13)CC2)c1ccc(F)cc1 . Value?
Result string: 4.27

Query string: Endpoint output: pIC50 of CCOc1ccc2nc(SCC(=O)Nc3nonc3C)[nH]c2c1 . Value?
Result string: < 4.00

Every entry's value here was drawn from PubChem BioAssay AID434987.
